System: HSV-1
measurement_protocol: Virucidal activity, RT-PCR assay (HSV-1 pretreated with compounds)
Format: cell-based, HSV-1 strain L2
conditions: 1 µg/mL; 72 h
Each entry below carries its recorded Ct.
Respond numerically, and do not add a unit to the figure.

smiles_data | Ct
Oc1cc(O)cc(/C=C/c2ccc3c(c2)O[C@H](c2cc(O)cc(O)c2)[C@@H](c2ccc(O)c(O)c2)O3)c1 | 25.9
Oc1cc(O)cc(/C=C/c2ccc(O)c(O)c2)c1 | 24.5
Oc1ccc(/C=C/c2cc(O)cc3c2[C@H](c2cc(O)cc(O)c2)[C@@H](c2ccc(O)c(O)c2)O3)cc1 | 25.8
Oc1ccc2c(c1)OC[C@H]1c3cc4c(cc3O[C@@H]21)OCO4 | 19.0
COc1ccc([C@H]2COc3cc(O)ccc3[C@@H]2c2c(O)cc(O)cc2/C=C/c2ccc(O)c(O)c2)c(O)c1 | 19.2

The reported value for `O=c1c(-c2ccc(O)cc2)coc2cc(O)cc(O)c12` in terms of Ct is 18.4

The reported value for `COc1ccc(-c2coc3c4c(ccc3c2=O)O[C@@H](c2cc(O)cc(O)c2)[C@H](c2ccc(O)c(O)c2)O4)cc1` in terms of Ct is 20.2

The reported value for `Oc1ccc(/C=C/c2cc(O)cc(O)c2)cc1` in terms of Ct is 20.4
